Tested on: A498
assayComment: NCI tumour cell line growth inhibition, 48 h
Active and inactive are the calls of the source. No stated cut-off is given here; in the data, active = GI50 up to about 1.1 µM and inactive = higher.
API: response.call in active, inactive

As a guide, the following entries are already answered.
>  <molecule>
CCCCC1CC(c2ccc(Cl)cc2)=NO1 (stereo unspecified)

>  <classification>
inactive

$$$$
>  <molecule>
Cc1ccc(N(C(=O)Nc2ccc(F)c(Cl)c2)C2=NCC(C)S2)cc1 (stereo unspecified)

>  <classification>
inactive

$$$$
>  <molecule>
COc1ccc(S(=O)(=O)Nc2ccc(-c3csc(N4C(=O)/C(=C/c5ccccc5)N=C4c4ccccc4)n3)cc2)cc1Cl

>  <classification>
inactive

$$$$
>  <molecule>
CCOC(=O)C(NC(=O)c1ccccc1)(N1CCN(c2cc3c(cc2F)c(=O)c(C(=O)O)cn3CC)CC1)C(F)(F)F (stereo unspecified)

>  <classification>
inactive

$$$$

Consider the record given below.
# input What call does the record list for O=C(CCCCCC(=O)N1CC(CCl)c2ccc([N+](=O)[O-])cc21)N1CC(CCl)c2ccc([N+](=O)[O-])cc21 (stereo unspecified) ?
# output inactive

---

Item-by-item account of GI50
Tested on: KM12
assayComment: NCI tumour cell line growth inhibition, 48 h
The source made the active and inactive calls. Cut-off read from the data, not from the text of the source: active = GI50 up to about 1.1 µM and inactive = higher.

Below: 4 compounds and their reported GI50.
>  <compound>
O=C(N(C1=CCCC1)N(c1ccccc1)c1ccccc1)C(F)(F)F

>  <result>
18.1 µM (inactive)

$$$$
>  <compound>
CCOc1ccc(Nc2nc(N)nc(N)c2N)cc1

>  <result>
23.7 µM (inactive)

$$$$
>  <compound>
COc1cc(/N=N\c2ccc(OC)c(S(=O)(=O)O)c2)c(C)cc1/N=N\c1ccc(/C=C/c2ccc(/N=[N+](/[O-])c3ccc(/C=C/c4ccc(/N=N/c5cc(C)c(/N=N\c6ccc(OC)c(S(=O)(=O)O)c6)cc5OC)cc4S(=O)(=O)O)c(S(=O)(=O)O)c3)cc2S(=O)(=O)O)c(S(=O)(=O)O)c1

>  <result>
> 100 µM (inactive)

$$$$
>  <compound>
COc1ccccc1N1C(=O)CS(=O)(=O)C1c1cccc(Oc2ccccc2)c1 (stereo not given)

>  <result>
15.7 µM (inactive)

$$$$

Please examine the following record next.
Form field, GI50 with KM12, item Cc1ccc(S(=O)(=O)NC(=O)NC(CO)C(=O)O)cc1 (stereo not given) : > 100 µM (inactive)

---

System: OVCAR-5
assayComment: NCI tumour cell line growth inhibition, 48 h
The source made the active and inactive calls. Rule as the data show it: active = GI50 up to about 1.1 µM and inactive = higher.
reportedEndpoint: GI50

>  <compound>
OC1(c2ccccc2)OC(C#Cc2ccccc2)(c2ccccc2)c2ccccc21 (stereo not given)

>  <result>
2.79 µM (inactive)

$$$$
>  <compound>
O=C1[C@@H]2C(c3c(Cl)cccc3Cl)=NO[C@@H]2C(=O)N1c1ccc(Cc2ccc(N3C(=O)[C@H]4C(c5c(Cl)cccc5Cl)=NO[C@H]4C3=O)cc2)cc1

>  <result>
> 100 µM (inactive)

$$$$
>  <compound>
CC(=O)NNc1nc(C)c(C(=O)/C=C/c2ccccc2Cl)s1

>  <result>
> 100 µM (inactive)

$$$$

Please examine the following record next.
Form field, GI50 with OVCAR-5, item CC(C)CC(N)C(=O)OCN1C(=O)C2C3C=CC(C2C1=O)C1C2C(=O)N(COC(=O)C(N)CC(C)C)C(=O)C2C31 (stereo not given) : > 100 µM (inactive)

Source: ChEMBL document CHEMBL1201862
